Target: Apelin receptor (Homo sapiens)
Assay: apelin receptor inhibitor analogs – cell-based, luminescence, SAR follow-up (AID 463109);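 active = mean IC50 below 10 µM; inactive = the rest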
Details: CHO-K1 AGTRL-1 PathHunter beta-arrestin luminescence
Response enum: active, inactive

>  <structure.smiles>
Cc1ccc(N=C2C(=O)Nc3ccc(Br)cc32)cc1

>  <tested.system>
Apelin receptor (Homo sapiens)

>  <qualitative.label>
active

$$$$

IN: Entry CSc1cccc(N=C2C(=O)Nc3ccccc32)c1 : call = ?
OUT: active

IN: Please share the test call associated with Cc1ccc(C(=O)CNc2cc(C)ccc2C)cc1 .
OUT: active

IN: I'd appreciate the recorded outcome for Cc1cc(C)nc(NNS(=O)(=O)c2ccc(F)c(Cl)c2)n1 from this test.
OUT: active

IN: Just curious, what result did Cc1cc(C)nc(NNS(=O)(=O)c2c(F)cc(F)cc2Br)n1 get here?
OUT: active

IN: Look up the recorded call for O=C(CNc1ccc(Br)cc1)c1ccccc1 in this test.
OUT: active

IN: Given COc1ccccc1NCC(=O)c1ccc(Cl)cc1 , state the outcome it received in this test.
OUT: active
